- procedure-text: CellTiter-Blue cell viability assay, cell toxicity in PBMC from healthy volunteers
- Type: cell-based
- condition-notes: human, 50 000 cells/well, cultured 24, 48 and 72 h (time of the IC50 not stated), % cytotoxicity vs 0.2% DMSO
assay-endpoint: IC50

CNC(=O)COc1ccc(-c2nc3c(NC4CCN(C5CCCCC5)CC4)c(Cl)cnc3[nH]2)cc1 = > 20 µM

// field: IC50; key: `CCN1CC[C@H](Nc2c(Cl)cnc3[nH]c(-c4ccc(OCC(=O)NC)cc4)nc23)C1` ; value = > 20 µM

// field: IC50; key: `CN1CCC(Nc2c(Cl)cnc3[nH]c(-c4ccc(OCC(=O)NCCC5CCOCC5)cc4)nc23)CC1` ; value = > 20 µM

// field: IC50; key: `CNC(=O)COc1ccc(-c2nc3c(NC4CCN(C)CC4)c(Br)cnc3[nH]2)c(C)c1` ; value = > 20 µM

// field: IC50; key: `CNC(=O)COc1ccc(-c2nc3c(NC4CCN(Cc5ccc(-n6cncn6)cc5)CC4)c(Cl)cnc3[nH]2)cc1` ; value = > 20 µM

// field: IC50; key: `CN(C)CCNC(=O)COc1ccc(-c2nc3c(N[C@H]4CCN(Cc5ccccc5)C4)c(Cl)cnc3[nH]2)cc1` ; value = 13.8 µM

// field: IC50; key: `CNC(=O)COc1ccc(-c2nc3c(NC4CCN(Cc5c(C)nn(C)c5C)CC4)c(Br)cnc3[nH]2)cc1` ; value = > 20 µM

====

- procedure-text: CellTiter-Blue cell viability assay, cell toxicity in PBMC from healthy volunteers
- Type: cell-based
- condition-notes: human, 50 000 cells/well, cultured 24, 48 and 72 h (time of the IC50 not stated), % cytotoxicity vs 0.2% DMSO
- Text: Method for Measurement of Cell Toxicity The CellTiter-Blue® Cell Viability Assay provides a homogeneous, fluorometric method for estimating the number of viable cells present in multi-well plates. The assay uses the indicator dye resazurin to measure the metabolic capacity of cells. Viable cells retain the ability to reduce resazurin into resorufin, which is highly fluorescent. […]
Below, each of the compounds is paired with its reported pIC50 value.
Just so you know, pIC50 here is -log10 of the concentration in molar units; reply with that number alone.

// worked examples, pIC50 included
CN(C)CCNC(=O)COc1ccc(-c2nc3c(NC4CCN(CCc5ccccc5)CC4)c(Cl)cnc3[nH]2)cc1 = 5.00
CNC(=O)COc1ccc(-c2nc3c(NC4CCN(Cc5ccccc5)CC4)c(Cl)cnc3[nH]2)cc1 = 4.83

// below: pIC50 requested for another compound
// field: pIC50; key: `CN1CCC(Nc2c(Br)cnc3[nH]c(-c4ccc(OCC(=O)NC5CCCC5)cc4)nc23)CC1` ; value = 4.95

====

Below, each of the compounds is paired with its reported IC50 value.
- procedure-text: CellTiter-Blue cell viability assay, cell toxicity in PBMC from healthy volunteers
- Format: cell-based
- condition-notes: human, 50 000 cells/well, cultured 24, 48 and 72 h (time of the IC50 not stated), % cytotoxicity vs 0.2% DMSO

// worked examples, IC50 included
CNC(=O)COc1ccc(-c2nc3c(NC4CCN(C)CC4)c(Br)cnc3[nH]2)cc1F = > 20 µM
CNC(=O)Cc1ccc(-c2nc3c(NC4CCN(C)CC4)c(Cl)cnc3[nH]2)cc1 = > 20 µM

// below: IC50 requested for another compound
// field: IC50; key: `CNC(=O)COc1ccc(-c2nc3c(NC4CCN(Cc5ccncc5)CC4)c(Cl)cnc3[nH]2)cc1` ; value = > 20 µM
